Entries annotated with measured apparent KD of MS2 coat protein
test system: MS2 coat protein; test: apparent KD of MS2 coat protein; designed switch direction (-1 OFF switch, 1 ON switch): -1; higher = weaker reporter binding; settings: Eterna round: R98; input ligand: none
attribute_measured: apparent KD of MS2 coat protein

1) GGUACUCAAAGAGUACCAAUACGAACAUGAGGAUCACCCAUGUAGGAUAUGCUACUCAAAGAGUAGCAGAAGGACAUGUGCCUA [OmeiMod 7 - Jieux - Exclusion NG 3]    38.7 nM
2) UAUAUAUAGGCAGGAUAUACAUGUAUAUAUAAUUUAUUAUAUAUUAUUACAUGAGGAUCACCCAUGUAGAAGGGCCAUAUUAUA [LRO037_Exclusion NG 2]    30.1 nM
3) AGAUGACAAAGUCAUCUCGCUCUGACAUGAGGAUCACCCAUGUAGGAUAUAUUACUCAAAGAGUAAUAGAAGGACAUGUUUCUG [Ex NG2 #64]    36 nM
4) GUCACGAAUGUAGGAUAUCGAGUGGAUAACACUCGAGAAGGACAUGAGGAUCACCCAUGUCAAAUGAAAGAUAAUAAACGUGAC [Exclsuion NG 1/3-B2]    15.8 nM
5) UUGCUCAAUUGGGCAGGGACCUCACAUGAGGAUCACCCAUGUCAGGAUAUCCUAGUUUGGACGUAGGAGAAGGGACGGAGUAUC [Usanat]    167 nM
6) CAGAUAAAAGUGAGGUCGUCGACAUGAGGAUCACCCAUGUACGAGGAUAUGUAAUAUACGGUAUAGCAGAAGGCGUAUGGGUGU [Edrageer]    30.5 nM

---

test system: MS2 coat protein; experiment: apparent KD of MS2 coat protein; higher = weaker reporter binding; conditions: Eterna round: R107; input ligand: arginine 13.2 mM
Given measured apparent KD of MS2 coat protein, output t if it is greater than or equal to 30 nM and f if not.

1) UAUAUAUAUCACGAACUGUGGUGUAUGUCCCGAGGACCGGUACGGCCGCCACUCGCGUGGUUCCACAUGAGGAUCACCCAUGUUG [XTryp A #7]    f
2) GGACAUGCAGGAAGGAGCGACACAGCAGAAACUGCAAAUCCUCCACACGAGGAUCACCCGUGUCAGGUAGGUCGCCUGCAUGUCG [ArgXB 14 #Zipper #MS2Left #StaticStem #Blueprint]    t
3) UCGCGAUAGAGAAGGAGCGUCAACACCACUUAACAUGAGGAUCACCCAUGUGUUACUUUGUGACAGGUAGGUCGCUCUAGCGCUU [JR_Nu_ExcArginiB_Sub026]    f
4) ACAUGAGGAUCACCCAUGUGGCGACUUGAUACCAGACCCGCACUAGUCCCUUGGCAGCAACUACGUGAGGGACACCCAUGUGAAG    f
5) CCGCACAUGAGGAUCACCCAUGUCCGGGUUCGAGGACCGGUACGGCCGCCACUCGGACAUGUGCGCCCUUCAUGCACUGUAUAAA [Macetius]    t

---

Below, each entry is listed alongside its reported apparent KD of MS2 coat protein.
system: MS2 coat protein; assay: apparent KD of MS2 coat protein, switch ON state; designed switch direction (-1 OFF switch, 1 ON switch): -1; higher = weaker reporter binding; conditions: FMN input: 0 or 200 uM; Eterna round: R93 (includes R88 designs)
attribute_measured: apparent KD of MS2 coat protein (nM)

1. AAAUUGUCAGGAUAUGUACGAACAACAAAACAAAUAACGGUACAGAAGGGACAUGAGGAUCACCCAUGUAUAAA [May 72]    65.8
2. CAGUACUGAGGAUAUACAUGAGGAUCACCCAUGUAUCAAAGCUAGGAAACUAGCACAUGUAGAAGGCAGUACUG [Ex3: 823]    25.7
3. AAAAAUUGAGGAUAUACAUGAGGAUCACCCAUGUUAGACCUAAAAAAAGGGAAAGAAAGUAGAAGGCAAUAAAA [Ex 3 May 28]    14.6
4. AAAAAGUCAGGAUAUACAUGAGGAUCACCCAUGUAGCAUACGAAAAAGAGUGUGCAGUGUAGAAGGGACAAAAA [Exclusion3-cac3]    19.5
5. ACAAGAUCAGGAUAUACAUGAGGAUCACCCAUGUAUAUCAAAAAGGGACUUACUUAAUGUAGAAGGGAUCAUGU [EX3 280: Random 16]    12.7
6. AUAAAACAUGAGGAUCACCCAUGUGAGGAUAUGCGAAAAUAAAUAAAAUAAAAUAAAAGCAGAAGGUACAAAUA [LROPPY Exclusion 1 - v04_deltaG=2.5 breakup some As]    29.3
7. UAUACGUGAGGAUAUGCGAAUACCACGUUAGACAUAUAGACGCAGAAGGCACAUGAGGAUCACCCAUGUGAACC [JR_Exc004_Sub315]    21.4
8. CUCAUGUCAGGAUAUCCAUGAAAUGAAGUGAAAGAAAAGAAGGAGAAGGGACAUGAGGAUCACCCAUGUUAGAA [EteRNA is fun!]    34.1
9. AAAAAGUGAGGAUAUACAUGAGGAUCACCCAUGUGUUAAAAAAAAAGGGUGGAAGAAAGUAGAAGGCACCAAAA [Ex 3 May 50]    33.7
10. AAACCACAUGAGGAUCACCCAUGUUAGGAUAUGCUAUGGAAAAUAAAAAUAAAACAUAGCAGAAGGGACAAAAA [Denovo 7]    19.3
11. AAAAUACAUGAGGAUCACCCAUGUGAGGAUAUGCUAUGGAAAUAAAAAAUAAAACAUAGCAGAAGGUACAAAAA [Mat - Exclusion 1 - Eli mod - D42]    20.9
12. AACUGACAUGAGGAUCACCCAUGUCAGGAUAUGACAUCGAAAAAUAAAUAAAUCGUUGUCAGAAGGGACAUGAA [Design 76: Sub-opt S]    16.3
13. AAGAAACAUGAGGAUCACCCAUGUGAGGAUAUCGAAAAGAAAAGAAAAGAAAGAAGAACGAGAAGGCACAAAGG [Neferkare (V) Tereru]    52.7
14. GAAAAGUCAGGAUAUGUACAAAAUAAAAUAAAAAUAAAAGUACAGAAGGGACAUGAGGAUCACCCAUGUAAAAG [Mat - Exclusion 4 - Mayanna - D120]    72.4
15. AAGAGUAGAGGAUAUACAUAAAAAGAGUCGAAAGACUCGGGACAUGAGGAUCACCCAUGUAGAAGGCUACUCAA [Hyphema Seclusion Mod 62% 4]    98.6
16. AACGGGCUAGGAUAUACACAAGCCUCAGAACAAAUAAACAAACAUGAGGAUCACCCAUGUAGAAGGAGCGCAAA [Lesocerean]    30.6
17. AACAUGUUAGGAUAUUCAAGAAAAGAAAAGAAAGAAAAGAAGAAGAAGGAACAUGAGGAUCACCCAUGUAAGAA [EteRNA is fun!]    33.3
18. AAGUCGUGAGGAUAUACAUGGAUAUACAUUCAUGUGGACCUACAUGAGGAUCACCCAUGUAGAAGGCACGAAUA [AJ 49]    35.2
19. GGAUGCCAAGGAUAUACAUGAGGAUCACCCAUGUGAGAGAAAAAAGUGAGAAAGAAAAGUAGAAGGUGGUGUCG [salish99-ex3-92]    33.1
20. AAAAAGUGAGGAUAUACAUGAGGAUCACCCAUGUGAAAUCGGAAAAAAAACGAAAAAAGUAGAAGGCACAAAAA [Fiskers Exclusion 3 D3]    19.1
21. AAAAAACAUGAGGAUCACCCAUGUAAGGAUAUGUAAAAUAAAAGAAAAAUAAAGAAAAGCAGAAGGUAUAUGUA [JL wbt mod 17]    29
22. AGUUGGCGAGGAUAUACAUGAGGAUCACCCAUGUAAGAGAAAAAAAGGAGAAAAAAAAGUAGAAGGCGCUGACA [Mat - Exclusion 3 - Lego mod - D45]    35.4
23. AGUGAGUGAGGAUAUGCUAGAAGAAUAAAAGAAAUAACGUAGCAGAAGGCACAUGAGGAUCACCCAUGUACACA [May 66]    25.6
24. AAGAGUAGAGGAUAUACAAAGGGAGAGUCGAAAGACUCAAAACAUGAGGAUCACCCAUGUAGAAGGCUACUCAA [Hyphema Seclusion Mod 62% 7]    213
25. AAUAGUGAAGGAUAUACUGGAGGAGUACGAUAAAAGAAAGAACAUGAGGAUCACCCAUGUAGAAGGUCAGAAGU [JR_Exc002_Sub1227]    22.9
26. CUCAUGUUAGGAUAUAUAUGAAAUGAAGUGAAAGAAAAGAAAUAGAAGGAACAUGAGGAUCACCCAUGUUAGAA [EteRNA is fun!]    51
